- MEASURED ON: T1, H7CRECD human IgG1 Fc fusion protein (human, UniProt Q96BF3 23-150)
- T1 construct: also called H7CR fusion protein; not shown: human IgG1 Fc
- T1 sequence: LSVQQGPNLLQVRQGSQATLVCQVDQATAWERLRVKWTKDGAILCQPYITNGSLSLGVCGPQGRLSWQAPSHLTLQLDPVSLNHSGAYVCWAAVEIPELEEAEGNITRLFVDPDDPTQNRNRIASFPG
- PROTOCOL SUMMARY: ELISA, H7CRECD human IgG1 Fc immobilized, anti-human IgG4 HRP detection
MEASURE NAME: EC50 (nM)
// units = nM; emit number, no label

[
  {
    "BINDER": "1.3 humanized variant V5 (heavy 2B / light 1A) (antibody, V domains shown, Variable domains only; detected with anti-human IgG4 HRP) VH: QVQLQESGPGLVKPAQTLSLTCTVSGFSISTSGYYWSWIRQYPGKRLEWIGYINYGGGTSYNPSLKSRVTISRDTSKNQFSLKLTSVTAADTATYCCATMADRFAFFDVWGQGTMVTVSS VL: DIVMTQSPDSLAVSLGERATINCKSSQSLFSSNTNRNYLAWYQQKPGQPPKLLIYHASTRESGVPDRFSGSGSGTDFTLTISSLQAEDVAVYYCQHHYETPLTFGQGTKLEIK",
    "UNIT NAME": "nM",
    "VAL": 0.28
  },
  {
    "BINDER": "1.3 humanized variant V9 (heavy 2B / light 1B) (antibody, V domains shown, Variable domains only; detected with anti-human IgG4 HRP) VH: QVQLQESGPGLVKPAQTLSLTCTVSGFSISTSGYYWSWIRQYPGKRLEWIGYINYGGGTSYNPSLKSRVTISRDTSKNQFSLKLTSVTAADTATYCCATMADRFAFFDVWGQGTMVTVSS VL: DIVMTQSPDSLAVSLGERATINCKSSQSLFSSNTNRNYLNWYQQKPGQSPKLLIYHASTRLSGVPDRFSGSGSGTDFTLTISSLQAEDVADYYCQHHYETPLTFGDGTKLEIK",
    "UNIT NAME": "nM",
    "VAL": 2.43
  }
]

Query string: Record request: EC50 value, item 1.3 humanized variant V6 (heavy 2C / light 1A) (antibody, V domains shown, Variable domains only; detected with anti-human IgG4 HRP) VH: QVQLQESGPGLVKPAQTLSLTCTVSGFSISTSGYYWSWIRQFPGKRLEWMGYINYGGGTSYNPSLKSRVTISRDTSKNQFSLKLTSVTAADTATYCCATMADRFAFFDVWGQGTMVTVSS VL: DIVMTQSPDSLAVSLGERATINCKSSQSLFSSNTNRNYLAWYQQKPGQPPKLLIYHASTRESGVPDRFSGSGSGTDFTLTISSLQAEDVAVYYCQHHYETPLTFGQGTKLEIK
Result string: 0.3

Query string: Consider the binder 1.3 humanized variant V14 (heavy 2C / light 1C) (antibody, V domains shown, Variable domains only; detected with anti-human IgG4 HRP) VH: QVQLQESGPGLVKPAQTLSLTCTVSGFSISTSGYYWSWIRQFPGKRLEWMGYINYGGGTSYNPSLKSRVTISRDTSKNQFSLKLTSVTAADTATYCCATMADRFAFFDVWGQGTMVTVSS VL: DIVMTQSPDSLAVSLGERATINCLSSQSLFSSNTNRNYLNWYLQKPGQSPKLLIYHASTRLSGVPDRFIGSGSGTDFTLTISSLQAEDVGDYYCQHHYETPLTFGDGTKLEIK and give its measured EC50.
Result string: 0.32
